Provenance of the data: patent US20240360227A1

# STUDY TARGET: Recombinant human his-tagged IGF R extracellular domain protein (human) (UniProt P08069)
# METHOD NOTES: SPR, Ab captured via anti-huIgG Fc, dissociation at pH 6
# reported Kd; entries follow
Number in nM, nothing else.

// below: answered binders
VRDN-02023 (antibody, V domains shown) VH: QVQLQESGPGLVKPSETLSLTCTVSGYSITGGYLWNWIRQPPGKGLEWIGYISYDGTNNYKPSLKDRVTISRDTSKNQFSLKLSSVTAADTAVYYCARYGHVFFDYWGQGTLVTVSS VL: DIVMTQSPLSLPVTPGEPASISCRSSQSIVHSNGNTYLQWYLQKPGQSPQLLIYKVSNRLYGVPDRFSGSGSGTDFTLKISRVEAEDVGVYYCFQGSHVPWTFGQGTKVEIK | 1.23
VRDN-02008 (antibody, V domains shown) VH: QVQLQESGPGLVKPSETLSLTCTVSGYSITGGHLWNWIRQPPGKGLEWIGYISYDGTNNYKPSLKDRVTISRDTSKNQFSLKLSSVTAADTAVYYCARYGRVFFDYWGQGTLVTVSS VL: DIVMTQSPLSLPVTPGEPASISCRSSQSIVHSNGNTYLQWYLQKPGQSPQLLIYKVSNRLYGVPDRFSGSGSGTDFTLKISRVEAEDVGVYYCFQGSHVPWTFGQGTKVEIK | 13.1
VRDN-02059 (antibody, V domains shown) VH: QVQLQESGPGLVKPSETLSLTCTVSGYSITGGYLWNWIRQPPGKGLEWIGYIHYDGTNNYKPSLKDRVTISRDTSKNQFSLKLSSVTAADTAVYYCARYGRVFFDYWGQGTLVTVSS VL: DIVMTQSPLSLPVTPGEPASISCRSHQSIVHSNGNTYLQWYLQKPGQSPQLLIYKVSNRLYGVPDRFSGSGSGTDFTLKISRVEAEDVGVYYCFQGSHVPWTFGQGTKVEIK | 0.228
VRDN-02029 (antibody, V domains shown) VH: QVQLQESGPGLVKPSETLSLTCTVSGYSITGGYLWNWIRQPPGKGLEWIGYISYDGTNNYKPSLKDRVTISRDTSKNQFSLKLSSVTAADTAVYYCARYGRVFFDYWGQGTLVTVSS VL: DIVMTQSPLSLPVTPGEPASISCHSSQSIVHSNGNTYLQWYLQKPGQSPQLLIYKVSNRLYGVPDRFSGSGSGTDFTLKISRVEAEDVGVYYCFQGSHVPWTFGQGTKVEIK | 1.1

Here's the next entry for you.
INPUT: Quick check: Kd of VRDN-02045 (antibody, V domains shown) VH: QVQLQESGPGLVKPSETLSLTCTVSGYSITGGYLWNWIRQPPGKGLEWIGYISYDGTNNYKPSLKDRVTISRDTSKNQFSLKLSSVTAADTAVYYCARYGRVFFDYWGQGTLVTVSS VL: DIVMTQSPLSLPVTPGEPASISCRSSQSIVHSNGNTYLQWYLQKPGQSPQLLIYKHSNRLYGVPDRFSGSGSGTDFTLKISRVEAEDVGVYYCFQGSHVPWTFGQGTKVEIK ?
OUTPUT: 1.66
